Test system: Detroit 551
Test: Cytotoxicity against human Detroit 551 cells after 48 hrs by MTT assay
Details: Detroit 551, 48 h
pIC50: −log10 of the molar value.
Below: a set of entries, each annotated with reported pIC50.

- Structure Notation: "COC(=O)c1cnc2c(c1)c1ccccc1n2Cc1ccccc1"
  pIC50: "< 4.30"
- Structure Notation: "COC(=O)c1cnc2c(c1)c1ccccc1n2Cc1c(F)cccc1F"
  pIC50: "< 4.30"
- Structure Notation: "OCc1cnc2c(c1)c1ccccc1n2Cc1ccoc1"
  pIC50: "< 4.30"
- Structure Notation: "COC(=O)c1cnc2c(c1)c1ccccc1n2Cc1ccc2c(c1)OCO2"
  pIC50: "< 4.30"
- Structure Notation: "COc1cc(Cn2c3ccccc3c3cc(CO)cnc32)cc(OC)c1"
  pIC50: "< 4.30"
- Structure Notation: "COC(=O)c1cnc2c(c1)c1ccccc1n2Cc1cccc(Cl)c1"
  pIC50: "< 4.30"
- Structure Notation: "COc1cc(Cn2c3ccccc3c3cc(C(=O)O)cnc32)cc(OC)c1"
  pIC50: "< 4.00"
- Structure Notation: "COC(=O)c1cnc2c(c1)c1ccccc1n2Cc1cc(OC)c(OC)c(OC)c1"
  pIC50: "< 4.30"
- Structure Notation: "COC(=O)c1cnc2c(c1)c1ccccc1n2Cc1ccoc1"
  pIC50: "< 4.30"
- Structure Notation: "COC(=O)c1cnc2c(c1)c1ccccc1n2Cc1cc(F)cc(F)c1"
  pIC50: "< 4.30"
- Structure Notation: "COc1ccc(Cn2c3ccccc3c3cc(CO)cnc32)cc1"
  pIC50: "< 4.30"
- Structure Notation: "OCc1cnc2c(c1)c1ccccc1n2Cc1ccco1"
  pIC50: "< 4.30"
- Structure Notation: "COc1cccc(Cn2c3ccccc3c3cc(CO)cnc32)c1"
  pIC50: "< 4.30"
- Structure Notation: "COC(=O)c1cnc2c(c1)c1ccccc1n2Cc1ccc(Cl)cc1Cl"
  pIC50: "< 4.30"
- Structure Notation: "COC(=O)c1cnc2c(c1)c1ccccc1n2Cc1ccc(Cl)c(Cl)c1"
  pIC50: "< 4.30"
- Structure Notation: "OCc1cnc2c(c1)c1ccccc1n2Cc1ccc(F)cc1F"
  pIC50: "< 4.30"
- Structure Notation: "COC(=O)c1cnc2c(c1)c1ccccc1n2Cc1ccccc1Cl"
  pIC50: "< 4.30"
- Structure Notation: "COC(=O)c1cnc2c(c1)c1ccccc1n2Cc1cccc(Cl)c1Cl"
  pIC50: "< 4.30"
